Test system: U-251
RUN_DESCRIPTION: NCI tumour cell line growth inhibition, 48 h
Calls of active or inactive are those of the source. No stated cut-off is given here; in the data, active = GI50 up to about 1.1 µM and inactive = higher.
GI50 by entry:

The following molecules have reported results that may help.
Cc1ccc(S(=O)(=O)N/N=C(\CCN2CCCC2)CC(c2ccccc2)c2c(O)c3ccccc3oc2=O)cc1 (stereo not drawn) ... > 100 µM (inactive)
CC1(c2sccc2Cl)CC(c2sccc2Cl)=C(C#N)C(=C(C#N)C#N)N1 (stereo not drawn) ... 18.5 µM (inactive)
CCOC(=O)C1=C(C)N(NC(N)=O)C2(O)CCCC(=O)C12C (stereo not drawn) ... > 100 µM (inactive)
COC1/C=C\OC2(C)Oc3c(C)c(O)c4c(O)c(c(/C=N\OCCCc5ccccc5)c(O)c4c3C2=O)NC(=O)/C(C)=C\C=C/C(C)C(O)C(C)C(O)C(C)C(OC(C)=O)C1C (stereo not drawn) ... 4.36 µM (inactive)
COc1cccc2c1C(=O)c1c(O)c3c(c(O)c1C2=O)CC(O)(C(=O)CO)CC3OC1CC(N)C(I)C(C)O1 (stereo not drawn) ... 2.7 µM (inactive)

Q: Please look up its GI50: O=C1c2cc3ccccc3cc2C2(c3ccc(Cl)cc3)NCCN12 (stereo not drawn)
A: 34.9 µM (inactive)

Q: // returns reported GI50 for input COc1ccc(NC(=O)C(=O)C(C(=O)c2ccccc2)C2OC(=O)c3ccccc32)c([N+](=O)[O-])c1 (stereo not drawn)
A: > 100 µM (inactive)

Q: Returns the measured GI50 for the input molecule. Input: `Oc1cc(-c2cccc(C(F)(F)F)c2)nc2cc3c(cc12)OCO3`
A: 2.55 µM (inactive)
